These measurements were taken from paper PMC9000871.

Tested on: HT29 (colon adenocarcinoma)
run_description: SRB cytotoxicity assay, HT29
Assay type: cell-based, human
condition_description: 72 h of treatment, mean ± standard mean error
Experimental: The cell lines were obtained from Department of Oncology (Martin-Luther-University Halle Wittenberg; they were bought from ATCC; A 375 (CRL-1619), HT29 (HTB-38), MCF7 (HTM-22), A2780 (HTP-77), FaDu (HTP-43), NIH 3T3 (CRL-1658), HEK-293 (CRL-1573)). […] Furthermore, tris base solution (200 μL, 10 mM) was added to each well and absorbance was measured at λ = 570 nm employing a reader (96 wells, Tecan Spectra, Crailsheim, Germany). […]
pEC50: −log10 of the molar value.
observed_property: pEC50

1) CC(=O)O[C@H]1CC[C@@]2(C)C(CC[C@]3(C)C2CCC2C4[C@H](C(C)=O)CC[C@]4(C(=O)N4CCNCC4)CC[C@]23C)C1(C)C (stereo partly shown) [compound 8] ... 5.41

###

Test system: A2780 (ovarian carcinoma)
run_description: SRB cytotoxicity assay, A2780
Format: cell-based
condition_description: Homo sapiens, 72 h of treatment, mean ± standard mean error
Description: The cell lines were obtained from Department of Oncology (Martin-Luther-University Halle Wittenberg; they were bought from ATCC; A 375 (CRL-1619), HT29 (HTB-38), MCF7 (HTM-22), A2780 (HTP-77), FaDu (HTP-43), NIH 3T3 (CRL-1658), HEK-293 (CRL-1573)). […] Furthermore, tris base solution (200 μL, 10 mM) was added to each well and absorbance was measured at λ = 570 nm employing a reader (96 wells, Tecan Spectra, Crailsheim, Germany). […]
pEC50: −log10 of the molar value.
pEC50 vs 7: at or above is 1 (yes), below is 0 (no).

1) CC(=O)O[C@H]1CC[C@@]2(C)C(CC[C@]3(C)C2CC=C2C4[C@@H](C)[C@H](C)CC[C@]4(C(=O)N4CCNCC4)CC[C@]23C)C1(C)C (stereo partly shown) [compound 7] ... 0 (no)
2) C=C(C)[C@@H]1CC[C@]2(C(=O)N3CCN(C(=O)c4ccccc4-c4c5ccc(=[N+](CC)CC)cc-5oc5cc(N(CC)CC)ccc45)CC3)CC[C@]3(C)C(CCC4[C@@]5(C)CC[C@H](OC(C)=O)C(C)(C)C5CC[C@]43C)C12 (stereo partly shown) [compound 13] ... 1 (yes)
3) CC(=O)O[C@H]1CC[C@@]2(C)C(CC[C@]3(C)C2CC=C2C4CC(C)(C)CC[C@]4(C(=O)N4CCNCC4)CC[C@]23C)C1(C)C (stereo partly shown) [compound 6] ... 0 (no)
4) CC(=O)O[C@H]1CC[C@@]2(C)C(CC[C@]3(C)C2CCC2C4[C@H](C(C)=O)CC[C@]4(C(=O)O)CC[C@]23C)C1(C)C (stereo partly shown) [compound 4] ... 0 (no)
5) CC(=O)O[C@H]1CC[C@@]2(C)C(CC[C@]3(C)C2CC=C2C4[C@@H](C)[C@H](C)CC[C@]4(C(=O)N4CCCN(C(=O)c5ccccc5C5=c6cc7c8c(c6Oc6c5cc5c9c6CCCN9CCC5)CCC[N+]=8CCC7)CC4)CC[C@]23C)C1(C)C (stereo partly shown) [compound 27] ... 1 (yes)
6) CC(=O)O[C@H]1CC[C@@]2(C)C(CC[C@]3(C)C2CC=C2C4[C@@H](C)[C@H](C)CC[C@]4(C(=O)O)CC[C@]23C)C1(C)C (stereo partly drawn) [compound 3, 3β-Acetyloxy-urs-12-en-oic Acid] ... 0 (no)
7) CC(=O)O[C@H]1CC[C@@]2(C)C(CC[C@]3(C)C2CC=C2C4CC(C)(C)CC[C@]4(C(=O)N4CCCNCC4)CC[C@]23C)C1(C)C (stereo partly shown) [compound 10] ... 0 (no)
8) CC(=O)[C@@H]1CC[C@]2(C(=O)O)CC[C@]3(C)[C@H](CC[C@@H]4[C@@]5(C)CC[C@H](O)C(C)(C)[C@@H]5CC[C@]43C)[C@@H]12 [PA, platanic acid, reference compound] ... 0 (no)
9) C=C(C)[C@@H]1CC[C@]2(C(=O)N3CCCNCC3)CC[C@]3(C)C(CCC4[C@@]5(C)CC[C@H](OC(C)=O)C(C)(C)C5CC[C@]43C)C12 (stereo partly shown) [compound 9] ... 0 (no)
10) CC(=O)O[C@H]1CC[C@@]2(C)C(CC[C@]3(C)C2CCC2C4[C@H](C(C)=O)CC[C@]4(C(=O)N4CCCNCC4)CC[C@]23C)C1(C)C (stereo partly shown) [compound 12] ... 0 (no)
11) CC(=O)O[C@H]1CC[C@@]2(C)C(CC[C@]3(C)C2CCC2C4[C@H](C(C)=O)CC[C@]4(C(=O)N4CCNCC4)CC[C@]23C)C1(C)C (stereo partly shown) [compound 8] ... 0 (no)
12) C=C(C)[C@@H]1CC[C@]2(C(=O)N3CCCN(C(=O)c4ccccc4-c4c5ccc(=[N+](CC)CC)cc-5oc5cc(N(CC)CC)ccc45)CC3)CC[C@]3(C)C(CCC4[C@@]5(C)CC[C@H](OC(C)=O)C(C)(C)C5CC[C@]43C)C12 (stereo partly shown) [compound 17] ... 0 (no)
13) CC1(C)CC[C@]2(C(=O)O)CC[C@]3(C)C(=CC[C@@H]4[C@@]5(C)CC[C@H](O)C(C)(C)[C@@H]5CC[C@]43C)[C@@H]2C1 [OA, oleanolic acid, reference compound] ... 0 (no)
14) CC(=O)O[C@H]1CC[C@@]2(C)C(CC[C@]3(C)C2CCC2C4[C@H](C(C)=O)CC[C@]4(C(=O)N4CCCN(C(=O)c5ccccc5C5=c6cc7c8c(c6Oc6c5cc5c9c6CCCN9CCC5)CCC[N+]=8CCC7)CC4)CC[C@]23C)C1(C)C (stereo partly shown) [compound 28] ... 0 (no)
15) CC(=O)O[C@H]1CC[C@@]2(C)C(CC[C@]3(C)C2CC=C2C4[C@@H](C)[C@H](C)CC[C@]4(C(=O)N4CCCNCC4)CC[C@]23C)C1(C)C (stereo partly shown) [compound 11] ... 0 (no)
16) CCN(CC)c1ccc2c(-c3ccccc3C(=O)N3CCN(C(=O)[C@]45CCC(C)(C)CC4C4=CCC6[C@@]7(C)CC[C@H](OC(C)=O)C(C)(C)C7CC[C@@]6(C)[C@]4(C)CC5)CC3)c3ccc(=[N+](CC)CC)cc-3oc2c1 (stereo partly shown) [compound 14] ... 1 (yes)
17) CCN(CC)c1ccc2c(-c3ccccc3C(=O)N3CCCN(C(=O)[C@]45CCC(C)(C)CC4C4=CCC6[C@@]7(C)CC[C@H](OC(C)=O)C(C)(C)C7CC[C@@]6(C)[C@]4(C)CC5)CC3)c3ccc(=[N+](CC)CC)cc-3oc2c1 (stereo partly shown) [compound 18] ... 1 (yes)
18) C=C(C)[C@@H]1CC[C@]2(C(=O)N3CCNCC3)CC[C@]3(C)C(CCC4[C@@]5(C)CC[C@H](OC(C)=O)C(C)(C)C5CC[C@]43C)C12 (stereo partly shown) [compound 5] ... 0 (no)

###

Entries and their melting point
Counter-ions that a name gives are not always drawn.
observed_property: melting point

1. CC(=O)O[C@H]1CC[C@@]2(C)C(CC[C@]3(C)C2CCC2C4[C@H](C(C)=O)CC[C@]4(C(=O)N4CCCN(C(=O)c5ccccc5C5=c6cc7c8c(c6Oc6c5cc5c9c6CCCN9CCC5)CCC[N+]=8CCC7)CC4)CC[C@]23C)C1(C)C (some centres unmarked) (as salt: chloride) ... > 300 °C
2. CC(=O)O[C@H]1CC[C@@]2(C)C(CC[C@]3(C)C2CCC2C4[C@H](C(C)=O)CC[C@]4(C(=O)N4CCCNCC4)CC[C@]23C)C1(C)C (some centres unmarked) ... 162 to 165 °C
3. C=C(C)[C@@H]1CC[C@]2(C(=O)N3CCN(C(=O)c4ccccc4-c4c5ccc(=[N+](CC)CC)cc-5oc5cc(N(CC)CC)ccc45)CC3)CC[C@]3(C)C(CCC4[C@@]5(C)CC[C@H](OC(C)=O)C(C)(C)C5CC[C@]43C)C12 (some centres unmarked) (as salt: chloride) ... 247 to 252 °C
4. CC(=O)O[C@H]1CC[C@@]2(C)C(CC[C@]3(C)C2CC=C2C4[C@@H](C)[C@H](C)CC[C@]4(C(=O)N4CCCNCC4)CC[C@]23C)C1(C)C (some centres unmarked) ... 171 to 175 °C
5. CCN(CC)c1ccc2c(-c3ccccc3C(=O)N3CCCN(C(=O)[C@]45CCC(C)(C)CC4C4=CCC6[C@@]7(C)CC[C@H](OC(C)=O)C(C)(C)C7CC[C@@]6(C)[C@]4(C)CC5)CC3)c3ccc(=[N+](CC)CC)cc-3oc2c1 (some centres unmarked) (as salt: chloride) (hydrate or solvate) ... 235 to 241 °C
6. CCN(CC)c1ccc2c(-c3ccccc3C(=O)N3CCCN(C(=O)[C@]45CC[C@@H](C)[C@H](C)C4C4=CCC6[C@@]7(C)CC[C@H](OC(C)=O)C(C)(C)C7CC[C@@]6(C)[C@]4(C)CC5)CC3)c3ccc(=[N+](CC)CC)cc-3oc2c1 (some centres unmarked) (as salt: chloride) (hydrate or solvate) ... 238 to 246 °C
7. CC(=O)O[C@H]1CC[C@@]2(C)C(CC[C@]3(C)C2CC=C2C4[C@@H](C)[C@H](C)CC[C@]4(C(=O)N4CCCN(C(=O)c5ccccc5C5=c6cc7c8c(c6Oc6c5cc5c9c6CCCN9CCC5)CCC[N+]=8CCC7)CC4)CC[C@]23C)C1(C)C (some centres unmarked) (as salt: chloride) ... > 300 °C
8. CC(=O)O[C@H]1CC[C@@]2(C)C(CC[C@]3(C)C2CC=C2C4CC(C)(C)CC[C@]4(C(=O)N4CCCN(C(=O)c5ccccc5C5=c6cc7c8c(c6Oc6c5cc5c9c6CCCN9CCC5)CCC[N+]=8CCC7)CC4)CC[C@]23C)C1(C)C (some centres unmarked) (as salt: chloride) ... > 300 °C
